These measurements were taken from patent US10604514B2.

# Tested On: GSK3β kinase (Homo sapiens (Human))
# Sequence (P49841 whole entry): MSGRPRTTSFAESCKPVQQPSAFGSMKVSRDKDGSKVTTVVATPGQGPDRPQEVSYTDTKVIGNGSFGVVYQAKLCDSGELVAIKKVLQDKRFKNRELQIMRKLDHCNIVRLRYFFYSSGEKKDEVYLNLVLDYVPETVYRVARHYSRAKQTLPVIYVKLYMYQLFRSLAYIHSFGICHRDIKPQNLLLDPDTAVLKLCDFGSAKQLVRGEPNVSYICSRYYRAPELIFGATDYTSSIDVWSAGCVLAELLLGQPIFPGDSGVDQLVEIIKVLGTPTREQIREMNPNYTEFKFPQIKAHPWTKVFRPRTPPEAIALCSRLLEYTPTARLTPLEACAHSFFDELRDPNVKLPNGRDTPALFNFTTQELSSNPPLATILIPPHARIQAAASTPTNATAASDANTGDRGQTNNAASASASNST
# Experiment Description: GSK3β kinase assay (Ser/Thr 09 peptide Z-lyte, FRET);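 note: Coumarin/fluorescein emission ratio converted to percent phosphorylation against unphosphorylated (0%) and phosphorylated (100%) controls, 1 h compound incubation at room temperature, 11-point threefold dilutions from 10 µM, run in duplicate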
# Experimental Conditions: method text calls the value IC50
Assay Metric: EC50 (µM)

Consider the worked cases shown below.
Cc1nnc(-c2ccc3cnc(NC(=O)N4CC[C@@H](N)[C@H](F)C4)cc3c2)s1 = 0.006
Cc1nnc(-c2ccc3cnc(NC(=O)N4CC[C@H](NC(C)C)[C@@H](F)C4)cc3c2)s1 = 0.084
Cc1nnc(-c2ccc3cnc(NC(=O)N4[C@@H]5CC[C@H]4C[C@@H](N)C5)cc3c2)s1 = 0.33
Cc1nnc(-c2ccc3cnc(NC(=O)CN4CCOCC4)cc3c2)n1C = 0.059
Cc1ncc(-c2ccc3cnc(NC(=O)N4CC[C@H](NC(C)C)[C@@H](F)C4)cc3c2)o1 = 0.366

I: Cc1ncc(-c2ccc3cnc(NC(=O)[C@H]4CC[C@H](NCCC(F)(F)F)CC4)cc3c2)o1
II: Cc1nnc(-c2ccc3cnc(NC(=O)C4CCNCC4)cc3c2)s1
III: Cn1cc(-c2ccc3cnc(NC(=O)CN4CCOCC4)cc3c2)nn1
IV: Cn1cc(-c2ccc3cnc(NC(=O)N4CCOCC4)cc3c2)cn1
V: Cc1nnc(-c2cc(F)c3cnc(NC(=O)N(C)C4CCN(C)CC4)cc3c2)s1
Lookup: // ranking: key=EC50, reverse=True // ordering of labels required in reply
Found: V, IV, I, II, III
(V: 4.5 µM, IV: 0.53 µM, I: 0.257 µM, II: 0.03 µM, III: 0.01 µM)
